Answer each item with its documented MIC against A. hydrophila.
# Tested on: Aeromonas hydrophila
# RUN DESCRIPTION: MIC against Gram-negative bacteria: Aeromonas hydrophila
# Format: cell-based
# CONDITION DESCRIPTION: Aeromonas hydrophila; 5×10^5 CFU/mL; 10 h cultivation at 37° C.
Write down the numeric answer in µg/mL and omit the unit.

Value lookup for MIC against A. hydrophila; key = PRT1405 (PTTQCIDPQCGGRGICIMGSCACNSGYKGESCE; listed as Homo sapiens) 12.5

Would you mind doing PRT1421 (ATQSCNDLCEHFCVPNPDQPGSYSCMCETGYRLAADQHRCE; listed as Homo sapiens) as well? 50

Would you mind doing PRT1378 (AIQTCPGDCRGRGECHDGSCVCKDGYAGEDCG; listed as Homo sapiens) as well? 12.5

Would you mind doing PRT1430 (DINECAHADPCFPGSSCINTMPGFHCEACPRGYKGTQVS; listed as Homo sapiens) as well? 12.5

Would you mind doing PRT1485 (DVNECRRPLERRVCHHSCHNTVGSFLCTCRPGFRLRADRVSCE; listed as Homo sapiens) as well? 50

Would you mind doing PRT1443 (NHMPCPENLNGYCIHGKCEFIYSTQKASCRCESGYTGQHCE; listed as Homo sapiens) as well? 50

Would you mind doing PRT1464 (CNCDKTGTINGSLLCNKSTGQCPCKLGVTGLRCNQCEPHRYNLTIDNFQHCQM; listed as Homo sapiens) as well? 12.5

Would you mind doing PRT1373 (STRSCPGGCRGRGQCLDGRCVCEDGYSGEDC; listed as Homo sapiens) as well? 12.5

Numbers sourced from patent US9833497B2.
